method-notes: TarO Biochemical Enzymatic Assay: The TarO biochemical enzymatic assay is a liquid chromatography-mass spectroscopy (LC-MS) based end point assay that measures C55-P-P-GlcNAc (LIPID III) production. The TarO biochemical enzymatic assay was performed in a 384-well microtiter plate (Labcyte) with a reaction volume of 20 μl. The reaction mix contained 0.1 μgs/μl of TarO membrane preparation derived from MRSA COL (lysostaphin/lysozyme treated, centrifuged at 40K rpm, and re-suspended in 50 mM Tris pH 7.5, 10 mM MgCl2), 1500 μM UDP-GlcNAc, x 75 μM C55-P substrates in 83 mM Tris pH 8.0, 6.7 mM MgCl2, 6 mM CHAPS, and 8.3% DMSO buffer. The enzyme reactions were quenched by extraction in 40 μl of 1-pentanol containing 0.04 μM […] C55-PP-GlcNAc, which was used as an internal standard. A 10 μl volume of the quenched reaction mixture (pH≈3) from each well was injected onto a reversed-phase column (C4, 5 m, 2.1×50 mm, Thermo Scientific Biobacis-4) and eluted using a NH4Ac/H2O/MeOH gradient (solvent A: 10 mM NH4Ac in water, pH 5.6; solvent B: NH4Ac (1 M)-Isopropanol (1:90, v/v, pH 5.6). The HPLC conditions were as follows: 15% solvent B for 15 seconds followed by a gradient to 90% solvent B in 90 seconds; then solvent B was kept at 95% for 10 seconds followed by a gradient to 8% solvent B in 0.1 minute. The column was then equilibrated at 15% B for 1 minute before the next injection. The flow rate was kept constant at 600 μl/minute. Mass spectrometric detection was carried out in the negative-ion mode using selected reaction monitoring (SRM). Typical mass spectrometric conditions were as follows: heated capillary temperature, 210° C.; spray voltage, 2500 V; desolvation gas (N2), 40 l/h; auxiliary gas (N2), 35 l/h. Selected ion current (SIC) chromatograms of C55-PP-GlcNAc and internal standard 15C C55-PP-GlcNAc were plotted and integrated using LCQuan incorporated in Xcalibur software (ThermoFinnigan). The linearity of C55-PP-GlcNAc concentration versus mass spectrometric signal (AC55-PP-GlcNAc/A15C-C55-PP-GlcNAc) was determined with purified C55-PP-GlcNAc. The IC50 values were calculated using the nonlinear regression analysis (sigmoidal dose response fit allowing for a variable slope) of percent inhibition data with minimum and maximum values set to 0 and 100 percent.
Classification by IC50 | ranges: zone 1: < 500 nM; zone 2: ≥ 500 nM and < 2000 nM; zone 3: ≥ 2000 nM

>  <smiles-string>
C[C@H]1[C@@H](c2cc(F)cc(C(F)(F)F)c2)OC(=O)N1C(=O)NCc1cccc2cc[nH]c12

>  <assigned-label>
zone 1

$$$$
>  <smiles-string>
C[C@H]1[C@@H](c2cc(C(F)(F)F)cc(C(F)(F)F)c2)OC(=O)N1C(=O)COc1cccc2ccccc12

>  <assigned-label>
zone 1

$$$$
>  <smiles-string>
O=C(CCc1cncc2ccccc12)N1C[C@H](c2cc(C(F)(F)F)cc(C(F)(F)F)c2)OC1=O

>  <assigned-label>
zone 2

$$$$
>  <smiles-string>
COc1cc([C@H]2OC(=O)N(C(=O)NCc3cncc4cccnc34)[C@H]2CO)cc(C(F)(F)F)c1

>  <assigned-label>
zone 2

$$$$
>  <smiles-string>
C[C@H]1[C@@H](c2cc(F)cc(C(F)(F)F)c2)OC(=O)N1C(=O)NCc1cnc2sccn12

>  <assigned-label>
zone 3

$$$$
>  <smiles-string>
Cc1cnc(F)c(CNC(=O)N2C(=O)O[C@H](c3cc(C(F)(F)F)cc(C(F)(F)F)c3)[C@@H]2C)c1

>  <assigned-label>
zone 2

$$$$
>  <smiles-string>
COc1cccc([C@H]2OC(=O)N(C(=O)CCc3cccc4ccccc34)[C@H]2C)n1

>  <assigned-label>
zone 3

$$$$
>  <smiles-string>
Cc1cc(F)cc([C@H]2OC(=O)N(C(=O)CCc3cncc4ccccc34)[C@H]2C)c1

>  <assigned-label>
zone 2

$$$$
>  <smiles-string>
C[C@H]1[C@@H](c2cc(F)cc(C(F)(F)F)c2)OC(=O)N1C(=O)NCc1cccc2c1C(=O)NC2

>  <assigned-label>
zone 2

$$$$
>  <smiles-string>
C[C@H]1[C@@H](c2cc(F)cc(Br)c2)OC(=O)N1C(=O)NCc1cncc2ccccc12

>  <assigned-label>
zone 1

$$$$
>  <smiles-string>
COc1cc(C(F)(F)F)cc([C@H]2OC(=O)N(C(=O)NCc3cncc4cccnc34)[C@H]2CO)n1

>  <assigned-label>
zone 2

$$$$
>  <smiles-string>
COc1ccccc1CNC(=O)N1C(=O)O[C@H](c2cccc(C(F)(F)F)c2)[C@@H]1C

>  <assigned-label>
zone 1

$$$$
>  <smiles-string>
C[C@H]1[C@@H](c2cc(F)c(F)c(F)c2)OC(=O)N1C(=O)CCc1cncc2ccccc12

>  <assigned-label>
zone 2

$$$$
>  <smiles-string>
C[C@H]1[C@@H](c2cccc(Br)n2)OC(=O)N1C(=O)CCc1cccc2ccccc12

>  <assigned-label>
zone 1

$$$$
>  <smiles-string>
C[C@H]1[C@@H](c2cc(F)cc(C(F)(F)F)c2)OC(=O)N1C(=O)N(O)Cc1cccc2ccccc12

>  <assigned-label>
zone 3

$$$$
>  <smiles-string>
C[C@H]1[C@@H](c2cccc(C(F)(F)F)c2)OC(=O)N1C(=O)NCc1cncc2cccnc12

>  <assigned-label>
zone 1

$$$$
>  <smiles-string>
COc1cc(C(F)(F)F)nc([C@@H]2OC(=O)N(C(=O)NCc3cncc4ccccc34)[C@H]2C)n1

>  <assigned-label>
zone 3

$$$$

* * *

method-notes: TarO Biochemical Enzymatic Assay: The TarO biochemical enzymatic assay is a liquid chromatography-mass spectroscopy (LC-MS) based end point assay that measures C55-P-P-GlcNAc (LIPID III) production. The TarO biochemical enzymatic assay was performed in a 384-well microtiter plate (Labcyte) with a reaction volume of 20 μl. The reaction mix contained 0.1 μgs/μl of TarO membrane preparation derived from MRSA COL (lysostaphin/lysozyme treated, centrifuged at 40K rpm, and re-suspended in 50 mM Tris pH 7.5, 10 mM MgCl2), 1500 μM UDP-GlcNAc, x 75 μM C55-P substrates in 83 mM Tris pH 8.0, 6.7 mM MgCl2, 6 mM CHAPS, and 8.3% DMSO buffer. The enzyme reactions were quenched by extraction in 40 μl of 1-pentanol containing 0.04 μM […] C55-PP-GlcNAc, which was used as an internal standard. A 10 μl volume of the quenched reaction mixture (pH≈3) from each well was injected onto a reversed-phase column (C4, 5 m, 2.1×50 mm, Thermo Scientific Biobacis-4) and eluted using a NH4Ac/H2O/MeOH gradient (solvent A: 10 mM NH4Ac in water, pH 5.6; solvent B: NH4Ac (1 M)-Isopropanol (1:90, v/v, pH 5.6). The HPLC conditions were as follows: 15% solvent B for 15 seconds followed by a gradient to 90% solvent B in 90 seconds; then solvent B was kept at 95% for 10 seconds followed by a gradient to 8% solvent B in 0.1 minute. The column was then equilibrated at 15% B for 1 minute before the next injection. The flow rate was kept constant at 600 μl/minute. Mass spectrometric detection was carried out in the negative-ion mode using selected reaction monitoring (SRM). Typical mass spectrometric conditions were as follows: heated capillary temperature, 210° C.; spray voltage, 2500 V; desolvation gas (N2), 40 l/h; auxiliary gas (N2), 35 l/h. Selected ion current (SIC) chromatograms of C55-PP-GlcNAc and internal standard 15C C55-PP-GlcNAc were plotted and integrated using LCQuan incorporated in Xcalibur software (ThermoFinnigan). The linearity of C55-PP-GlcNAc concentration versus mass spectrometric signal (AC55-PP-GlcNAc/A15C-C55-PP-GlcNAc) was determined with purified C55-PP-GlcNAc. The IC50 values were calculated using the nonlinear regression analysis (sigmoidal dose response fit allowing for a variable slope) of percent inhibition data with minimum and maximum values set to 0 and 100 percent.
pIC50: −log10 of the molar value.
pIC50 vs 7: at or above is class 1, below is class 0.

>  <molecule>
COc1ccccc1CNC(=O)N1C(=O)O[C@H](c2cc(F)cc(C(F)(F)F)c2)[C@@H]1C

>  <assigned-label>
class 1

$$$$
>  <molecule>
C[C@H]1[C@@H](c2cc(F)cc(C(F)(F)F)c2)OC(=O)N1C(=O)NCc1ccccc1[N+](=O)[O-]

>  <assigned-label>
class 1

$$$$
>  <molecule>
C[C@H]1[C@@H](c2cc(C(F)(F)F)cc(C(F)(F)F)c2)OC(=O)N1C(=O)NCc1cccnc1N1CCOCC1

>  <assigned-label>
class 0

$$$$
>  <molecule>
C[C@H]1[C@@H](c2cc(C(F)(F)F)cc(C(F)(F)F)c2)OC(=O)N1C(=O)NCc1cnc2c(c1)CCC2

>  <assigned-label>
class 0

$$$$
>  <molecule>
Cc1cc([C@H]2OC(=O)N(C(=O)CCc3cccc4cnccc34)[C@H]2C)cc(C(F)(F)F)c1

>  <assigned-label>
class 0

$$$$
>  <molecule>
O=C(CCc1cncc2ccccc12)N1CC(c2cccc(F)c2F)OC1=O (stereo unspecified)

>  <assigned-label>
class 0

$$$$
>  <molecule>
COc1cncc(CNC(=O)N2C(=O)O[C@H](c3cc(C(F)(F)F)cc(C(F)(F)F)c3)[C@@H]2CO)c1OC

>  <assigned-label>
class 1

$$$$
>  <molecule>
C[C@H]1[C@@H](c2cc(C(F)(F)F)ccn2)OC(=O)N1C(=O)CCc1cncc2ccccc12

>  <assigned-label>
class 0

$$$$
>  <molecule>
Cc1cccnc1CNC(=O)N1C(=O)O[C@H](c2cc(C(F)(F)F)cc(C(F)(F)F)c2)[C@@H]1C

>  <assigned-label>
class 0

$$$$
>  <molecule>
C[C@H]1[C@@H](c2cc(C(F)(F)F)cc(C(F)(F)F)c2)OC(=O)N1C(=O)CCc1cncc2ccccc12

>  <assigned-label>
class 1

$$$$
>  <molecule>
C[C@H]1[C@@H](c2cc(F)cc(C(F)(F)F)c2)OC(=O)N1C(=O)NCc1cncc2ccccc12

>  <assigned-label>
class 1

$$$$
>  <molecule>
C[C@H]1[C@@H](c2cc(F)cc(C(F)(F)F)c2)OC(=O)N1C(=O)NCc1ccnc2cccnc12

>  <assigned-label>
class 0

$$$$
>  <molecule>
C[C@H]1[C@@H](c2cc(N3CCC(F)(F)C3)cc(C(F)(F)F)c2)OC(=O)N1C(=O)NCc1cccc2cncnc12

>  <assigned-label>
class 0

$$$$
